# Tested on: HCC1569
# ASSAY METHOD TEXT: cell number relative to DMSO (% of DMSO); higher = more cells (less growth inhibition / toxicity)
# EXPERIMENTAL PARAMETERS: concentration: 10 µM; 24 h
PROPERTY MEASURED: cell number

The following molecules have reported results that may help.
COc1cc(-c2oc3cc(O)cc(O)c3c(=O)c2O)ccc1O ... 97.1
C=CC1CN2CCC1CC2C(O)c1ccnc2ccc(OC)cc12.C=CC1CN2CCC1CC2C(O)c1ccnc2ccc(OC)cc12.O=S(=O)(O)O (centres undefined) [Quinidine sulfate] ... 99
CC(OC1OCCN(Cc2nc(=O)[nH][nH]2)C1c1ccc(F)cc1)c1cc(C(F)(F)F)cc(C(F)(F)F)c1 (centres undefined) [Aprepitant] ... 101

Here's the next entry for you.
## Input Item: Cc1nnc(SCC2=C(C(=O)[O-])N3C(=O)C(NC(=O)Cn4cnnn4)C3SC2)s1.[Na+] (centres undefined) [Cefazolin sodium] Test system: HCC1569 Read-out: cell number Value: ?
## Output 101

----------
# Test system: HCC1569
# ASSAY METHOD TEXT: H1.0 immunofluorescence intensity relative to DMSO (% of DMSO); higher = stronger H1.0 induction, active = 140 or more
# EXPERIMENTAL PARAMETERS: concentration: 10 µM; 24 h
PROPERTY MEASURED: H1.0 immunofluorescence intensity
Respond using a number only.

Past entries and their recorded results:
CCCCCC=CCC=CCCCCCCCC(N)=O [Linoleamide] ... 99.2
CC(=O)CC/C=C(\C)CC/C=C(\C)CC/C=C(\C)CCC=C(C)C ... 105
COC(=O)[C@@H](N)Cc1ccc(O)c(O)c1.Cl [L-3,4-Dihydroxyphenylalanine methyl ester hydrochloride] ... 96.8

## Input Returns the measured H1.0 immunofluorescence intensity for the input compound. Input: NC(=O)c1ccccc1 [Benzamide]
## Output 107

## Input Which H1.0 immunofluorescence intensity is reported for this compound? CCCCCC=CCC=CCCCCCCCC(=O)O [9(E),12(E)-Octadecadienoic acid]
## Output 108

## Input Given the entry CC1(C)CC(=O)C2=C(C1)NC(=S)NC2c1cccc(O)c1 (centres undefined) , report its measured H1.0 immunofluorescence intensity.
## Output 118

----------
# Tested on: HCC1569
# ASSAY METHOD TEXT: H1.0 immunofluorescence intensity relative to DMSO (% of DMSO); higher = stronger H1.0 induction, active = 140 or more
# EXPERIMENTAL PARAMETERS: concentration: 10 µM; 24 h
Parameter threshold = 100. Response is 1 (yes) when H1.0 immunofluorescence intensity meets or exceeds it, else 0 (no).

Solved cases below.
COc1ccc(C(=O)Nc2sc3c(c2C(N)=O)CCCC3)cc1OC ... 1 (yes)
CCCOc1ccc2nc(NC(=O)OC)[nH]c2c1 ... 1 (yes)
COc1cccc2c1C1CN(CCCCn3c(=O)[nH]c4c(sc5ncc(-c6ccccc6)nc54)c3=O)CC1CO2.Cl (stereo not given) [Fiduxosin hydrochloride] ... 1 (yes)
CN1CCN(CCCN2c3ccccc3Sc3ccc(C(F)(F)F)cc32)CC1.Cl.Cl [Trifluoperazine dihydrochloride] ... 1 (yes)
CC(C)CCN1c2nc(Nc3cc(F)c(O)c(F)c3)ncc2N(C)C(=O)C1C (stereo not given) ... 1 (yes)

## Input For this molecule, is measured H1.0 immunofluorescence intensity 100 or higher? "Cc1nc2sccn2c(=O)c1CCN1CCC(=C(c2ccc(F)cc2)c2ccc(F)cc2)CC1"
## Output 1 (yes)

## Input Could you please find out whether "COc1ccc(CC[C@H]2CCC[C@@H](CCc3ccc(OC)cc3)N2C[C@@H](O)CO)cc1.Cl" has H1.0 immunofluorescence intensity that meets 100 or exceeds it?
## Output 0 (no)

## Input Reported H1.0 immunofluorescence intensity at or above 100? Cl.Clc1ccc(Cn2c(CN3CCCC3)nc3ccccc32)cc1 [Clemizole hydrochloride]
## Output 0 (no)

## Input # check: H1.0 immunofluorescence intensity of "N#CC(=Cc1ccc(O)c(O)c1)C(=O)NCc1ccccc1" is greater than or equal to 100
## Output 1 (yes)

## Input Confirm if H1.0 immunofluorescence intensity reported for the molecule CON=C(C(=O)NC1C(=O)N2C(C(=O)[O-])=C(C[N+]3(C)CCCC3)CSC12)c1csc(N)n1 (stereo not given) [Cefepime] is 100 or above.
## Output 1 (yes)

## Input API: above_or_equal(metric=H1.0 immunofluorescence intensity, cutoff=100) for item Br.Oc1ccc(C2CNCc3sccc32)cc1O (stereo not given)
## Output 1 (yes)

## Input # check: H1.0 immunofluorescence intensity of O=C(OC1CC2CC3CC(C1)N2CC3=O)c1c[nH]c2ccccc12 (stereo not given) is greater than or equal to 100
## Output 1 (yes)

## Input # check: H1.0 immunofluorescence intensity of O=C(Nc1cc(C(=O)Nc2ccc(S(=O)(=O)[O-])cc2S(=O)(=O)[O-])cc(C(=O)Nc2ccc(S(=O)(=O)[O-])cc2S(=O)(=O)[O-])c1)Nc1cc(C(=O)Nc2ccc(S(=O)(=O)[O-])cc2S(=O)(=O)[O-])cc(C(=O)Nc2ccc(S(=O)(=O)[O-])cc2S(=O)(=O)[O-])c1.[Na+].[Na+].[Na+].[Na+].[Na+] [NF449 octasodium salt] is greater than or equal to 100
## Output 1 (yes)

## Input Check the entry CCCCCCCCCCCCCCCC(=O)NCCO [Palmitoylethanolamide] : does H1.0 immunofluorescence intensity equal or exceed 100?
## Output 0 (no)

----------
# System: HCC1569
# ASSAY METHOD TEXT: H1.0 immunofluorescence intensity relative to DMSO (% of DMSO); higher = stronger H1.0 induction, active = 140 or more
# EXPERIMENTAL PARAMETERS: concentration: 10 µM; 24 h
Field 'call' accepts active, inactive

Check out these entries, answers already filled in.
O=C(Nc1ncc(-c2cc(C(F)F)nn2-c2c(Cl)cccc2Cl)s1)C1CC1 ... active
CC(C=Cc1cccc(Oc2ccc(F)cc2)c1)N(O)C(N)=O (centres undefined) ... inactive
CCCCCCC=CCCCCCCCC(=O)O [9(E)-Hexadecenoic acid] ... inactive

Please examine the following record next.
## Input Look up the recorded call for CC(=O)O.CN=C(N)NCCCC(N)C(=O)O [NG-Monomethyl-L-arginine acetate] in this test.
## Output inactive

----------
# Test system: HCC1569
# ASSAY METHOD TEXT: cell number relative to DMSO (% of DMSO); higher = more cells (less growth inhibition / toxicity)
# EXPERIMENTAL PARAMETERS: concentration: 10 µM; 24 h
The entries below are paired with their reported cell number.

## Input Need cell number, item CCCC(CCC)C(=O)O [Valproic acid]
## Output 100

## Input Please give the measured cell number for this compound: CN(C)NN=C1N=CN=C1C(N)=O [Dacarbazine]
## Output 102

## Input Name the recorded cell number for "COc1cc2ncnc(Nc3ccc(O)cc3)c2cc1OC" .
## Output 100

## Input Find the recorded cell number belonging to O=C1NC(=O)C(=Cc2ccc3c(c2)OC(F)(F)O3)S1 [PI 3-KbInhibitor II] and report it.
## Output 100

## Input Recorded cell number for Cl.Fc1cccc(CN(C2=NCCN2)c2c(Cl)cccc2Cl)c1 [IMID-4F hydrochloride] , please?
## Output 99.4

## Input Name the recorded cell number for C#CC1(O)CCC2C3CCC4=CC(=O)CCC4C3CCC21CC (stereo not given) [Levonorgestrel] .
## Output 100

## Input Field request: cell number | item: CC(NCCc1ccc(O)cc1)C(O)c1ccc(O)cc1.Cl (stereo not given) [Ritodrine hydrochloride]
## Output 107

## Input What does the record list as cell number for "CCN(Cc1ccccc1)C(=O)Cn1c(=O)n(C)c2cnc(-c3ccccc3)nc21" ?
## Output 75.1

## Input Could you tell me which cell number is on file for CC(O)C1C(=O)N2C(C(=O)O)=C(SCCN=CN)CC12 (stereo not given) [Imipenem] ?
## Output 111

## Input For the compound shown here, Br.CN1CCc2cc(O)c(O)cc2C1Cc1ccc(O)c(O)c1.O.O.O (stereo not given) , give the reported cell number.
## Output 105

----------
# Test system: TDF
# ASSAY METHOD TEXT: H1.0 immunofluorescence intensity relative to DMSO (% of DMSO); higher = stronger H1.0 induction, active = 120 or more
# EXPERIMENTAL PARAMETERS: concentration: 10 µM; 24 h
PROPERTY MEASURED: H1.0 immunofluorescence intensity
A bare number is all that is needed in reply.

Recorded H1.0 immunofluorescence intensity, per entry:
COc1cc2c(c(OC)c1OC)-c1c(cc3c(c1OC)OCO3)CC(C)C(C)(O)C2OC(=O)c1ccccc1 (stereo not drawn) ... 98.5
CCC1C(=O)OCC1Cc1cncn1C.Cl (stereo not drawn) [Pilocarpine.HCl] ... 97.6
Cc1cc(C(C)(C)C)c(O)c(C(C)(C)C)c1 ... 90.4
COC(=O)c1c(C)[nH]c(C)c1C(=O)c1ccccc1Cc1ccccc1 ... 92.3

## Input I am curious: what H1.0 immunofluorescence intensity value has been reported for Cc1c(C)c2c(c(C)c1O)CCC(C)(COc1ccc(CC3SC(=O)NC3=O)cc1)O2 (stereo not drawn) ?
## Output 101

## Input Dear colleague, I am looking for the recorded H1.0 immunofluorescence intensity of the following molecule: CCCCCCCCCCCCCCCCCCOP(=O)([O-])OC1CC[N+](C)(C)CC1 [1,1-dimethylpiperidinium-4-yl octadecyl phosphate]
## Output 98.2

## Input Recorded H1.0 immunofluorescence intensity of Nc1nc(Cl)nc2c1ncn2C1OC(CO)C(O)C1O (stereo not drawn) , please.
## Output 87.8

## Input Data request, read-out H1.0 immunofluorescence intensity, for CN(C)C(=O)N=NC(=O)N(C)C [N,N,N',N'-Tetramethylazodicarboxamide]
## Output 91.5

## Input Item under review: CC12CCC(=O)C=C1CCC1C2CCC2(C)C1CCC2(O)C(=O)CO (stereo not drawn) [Cortexolone] . Reported H1.0 immunofluorescence intensity?
## Output 90.2

## Input Endpoint output: H1.0 immunofluorescence intensity of CCNC1CC(C)S(=O)(=O)c2sc(S(N)(=O)=O)cc21.Cl (stereo not drawn) [Dorzolamide.HCl] . Value?
## Output 100

## Input # input molecule: "CC=CC(=O)N(CC)c1ccccc1C" ; wanted: its H1.0 immunofluorescence intensity
## Output 101

## Input Requested read-out: H1.0 immunofluorescence intensity. Entry: CCCN(CCC)C(=O)C(CCC(=O)O)NC(=O)c1ccccc1 (stereo not drawn) [Proglumide]
## Output 88.6

## Input Given the entry "COCC(=O)NCC=Cc1ccc2ncnc(Nc3ccc(Oc4ccc(C)nc4)c(C)c3)c2c1" , report its measured H1.0 immunofluorescence intensity.
## Output 98.3
